Data provenance is patent US7718688B2.

- Test system: HT29: human colon cancer cell line
- assay info: Proliferation IC50 assay, oxic/hypoxic, HT29
- Type: cell-based
- cond: Table 3; IC50(aerobic)/IC10(hypoxic)

molecule: CC(=O)c1ccc2c3c(cc([N+](=O)[O-])c2c1)N(C(=O)c1cc2cc(OCCN(C)C)ccc2[nH]1)CC3CCl (stereo not drawn)
HCR (hypoxic cytotoxicity ratio) HT29: 1.5
//
molecule: COc1ccc(/C=C/C(=O)N2CC(CCl)c3c2cc([N+](=O)[O-])c2cc(S(N)(=O)=O)ccc32)cc1O (stereo not drawn)
HCR (hypoxic cytotoxicity ratio) HT29: 1.8
//
molecule: CN(C)CCOc1ccc2[nH]c(C(=O)N3CC(CCl)c4c3cc([N+](=O)[O-])c3cccc([N+](=O)[O-])c43)cc2c1 (stereo not drawn)
HCR (hypoxic cytotoxicity ratio) HT29: 1.3
